melting point: recorded values

C#CCN(c1ccc(C(=O)N[C@@H](CCC(=O)N[C@H](CCC(=O)O)C(=O)O)C(=O)O)cc1)C1CCc2cc3nc(COC)[nH]c(=O)c3cc21 (mixture of isomers) :: 150 to 155 °C
C#CCN(c1ccc(C(=O)N[C@@H](CCC(=O)N[C@H](CCC(=O)O)C(=O)O)C(=O)O)c(F)c1)C1CCc2cc3nc(C)[nH]c(=O)c3cc21 (mixture of isomers) :: 175 °C (dec.)
C#CCN(c1ccc(C(=O)N[C@@H](CCC(=O)N(C)[C@@H](CCC(=O)O)C(=O)O)C(=O)O)cc1)C1CCc2cc3nc(CO)[nH]c(=O)c3cc21 (mixture of isomers) :: > 165 °C (dec.)

# input Entry under review: C#CCN(c1ccc(C(=O)O)cc1)C1CCc2cc3nc(C)[nH]c(=O)c3cc21 (racemic) . Reported melting point?
# output 305 to 307 °C
